Recorded fraction ligated values for a group of variants are listed next.
B1: F1*; the commonest letter at each place (parent)
chain: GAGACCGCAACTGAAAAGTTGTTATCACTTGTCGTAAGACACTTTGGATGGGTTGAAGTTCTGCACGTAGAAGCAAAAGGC

variants of: B1; experiment: fraction ligated after 30 min (ligated reads / total reads); higher = more ligase activity; settings: with F1*sub RNA substrate (template-directed ligation), 42 °C

{"mutation_id": "G31A T43G", "fraction ligated": 0.807}
{"mutation_id": "G55A A56G A57C", "fraction ligated": 0.131}
{"mutation_id": "T23G C40G", "fraction ligated": 0.812}
{"mutation_id": "A39C G46A", "fraction ligated": 0.802}
{"mutation_id": "A24T T25G", "fraction ligated": 0.722}
{"mutation_id": "T23C A39T", "fraction ligated": 0.803}
{"mutation_id": "C28A T29C", "fraction ligated": 0.828}
{"mutation_id": "T32G T45G", "fraction ligated": 0.0918}
